Data provenance is patent US20250270343A1.

Target: T1, soluble mouse GPNMB (recombinant extracellular domain) (mouse, UniProt Q99P91 23-502)
T1 construct: also called moGPNMB; not shown: C-terminal polyhistidine or Avi-His tag
T1 sequence: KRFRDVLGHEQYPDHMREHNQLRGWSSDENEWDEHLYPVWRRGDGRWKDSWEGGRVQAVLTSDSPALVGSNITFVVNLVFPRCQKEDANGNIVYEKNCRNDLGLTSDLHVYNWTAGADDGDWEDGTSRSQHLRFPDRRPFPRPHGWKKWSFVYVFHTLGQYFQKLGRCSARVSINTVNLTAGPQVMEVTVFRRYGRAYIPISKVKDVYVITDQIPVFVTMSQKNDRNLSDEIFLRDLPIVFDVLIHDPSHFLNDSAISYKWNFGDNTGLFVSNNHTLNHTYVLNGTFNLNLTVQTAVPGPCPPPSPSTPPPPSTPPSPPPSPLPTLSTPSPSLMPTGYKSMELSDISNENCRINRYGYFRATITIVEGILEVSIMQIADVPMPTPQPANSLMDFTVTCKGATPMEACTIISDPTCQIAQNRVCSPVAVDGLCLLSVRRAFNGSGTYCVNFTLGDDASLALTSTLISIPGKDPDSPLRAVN
Experiment: SPR Carterra, Ab immobilized
Give true (1) when the value for kon is at least 60000 M⁻¹ s⁻¹. Give false (0) when it is less.

binder | class_name
anti-GPNMB antibody GPN-35 (antibody, human IgG1, V domains shown, chimeric) VH: EVQLVESGGGSVRPGRSLKLSCAAAGFTFSDYYMTWVRQAPTKGLEWVASINHDGGGTYYRDSVKGRFTISRDNARSSLYLQMDSLRSEDTGTYYCTTRAGWHWGQGVMVTVSS VL: DIQMTQSPASLSASLGETVSIECLASEDIYNYLTWYQQKPGKSPQVLIYSASGLQDGVPSRFSGSGSGRQYSLKINGLESEDAATYFCLQDSEYPLTFGSGTKLEIK | false (0)
anti-GPNMB antibody GPN-65 (antibody, human IgG1, V domains shown, chimeric) VH: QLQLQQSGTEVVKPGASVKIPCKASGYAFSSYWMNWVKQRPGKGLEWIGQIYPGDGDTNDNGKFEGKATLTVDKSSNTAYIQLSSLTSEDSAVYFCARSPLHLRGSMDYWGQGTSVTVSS VL: SIVMTQTPKFLLVSAGDRVTITCKASQSVSNDVAWFQQKPGQSPELLIYSASNRYTGVPDRFTGSGYGTDFTFTISTVQAEDLAVYFCQQNYYSPFTFGGGTRLEIK | true (1)
anti-GPNMB antibody GPN-41 (antibody, human IgG1, V domains shown, chimeric) VH: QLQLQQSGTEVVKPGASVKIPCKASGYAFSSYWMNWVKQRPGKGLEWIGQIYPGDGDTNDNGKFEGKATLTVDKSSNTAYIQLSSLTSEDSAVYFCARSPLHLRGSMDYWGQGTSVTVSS VL: SIVMTQTPKFLLVSAGDRVTITCKASQSVSNDVAWFQQKPGQSPELLIYSASNRYTGVPDRFTASGYGTDFTFTISAVQAEDLAVYFCQQNYYSPFTFGGGTRLEIK | true (1)

IN: Does kon meet or surpass 60000 M⁻¹ s⁻¹ for anti-GPNMB antibody GPN-38 (antibody, human IgG1, V domains shown, chimeric) VH: QVQLQQPGAELVRPGTSVRLSCKASGYTFTSYWIHWVKQRPGRGLEWIGVIDPSDSYTNYNQQFNVKATLTVDTSSSAAYMQLSSLTSEDSAVYYCARGLITAVNWYFDVWGTGTTVTVSS VL: DIQMTQSPASLSTSVGEIVTITCRASENIYSYLTWYQQKQGKSPQLLVYNAKTLAEGVPSRFSGSGSGTQFSLKINSLQPEDFGTYYCQHHYGTPLTFGSGTKLEIK ?
OUT: false (0)

IN: Does kon meet or surpass 60000 M⁻¹ s⁻¹ for anti-GPNMB antibody GPN-33 (antibody, human IgG1, V domains shown, chimeric) VH: EVQLVESGGSLVQPGGSLKLSCVASGYTFSNYWMDWVRQTPGKSLEWIGEINTDGSKTNYAPSIKDRFTISRDNAKSTLYLQMSNVKADDTAIYYCTRGPGAWGQGTSVTVSS VL: DIVMTQTPLSLSVAIGQSASISCKSSQSLKFSDGKTYLNWVFQSPGQSPKRLIYQVSKLDSGVPDRFSGTGSETDFILKISRVEAEDLGVYYCCQGSYSPWTIGGGTKLELK ?
OUT: false (0)
